Measured values drawn from paper PMC5365648 for this set.

# TEST: Mouse pharmacokinetics, i.p. injection
# CONDITION_CONTEXT: in vivo, ip, female ICR (CD-1) mice, single 4 mg/kg i.p., plasma, LC-MS/MS, noncompartmental from mean profile, n = 3/time point
Starred links: 1 amine or outer side, 2 acyl side, 3 side chain; linkers in the order of their positions; H or OH if unused. Positions of bridges follow the written chain, without caps; N, C: chain ends. Non-standard residues stand in square brackets, D forms with d. Residues, ends and D or L forms follow the SMILES beside them. *: point of attachment. Orn(4R-OH,5R-OCH2CH2NMe3+) = C[N+](C)(C)CCO[C@@H](N[*:3])[C@H](O)C[C@H](N[*:1])C(=O)[*:2]; pTerphenylCO(4''-OnC5H11) = CCCCCOc1ccc(-c2ccc(-c3ccc(C(=O)*)cc3)cc2)cc1; hTyr(3S-OH,4S-OH) = N[C@H](C(=O)O)[C@H](O)[C@@H](O)c1ccc(O)cc1; Pro(3S-OH,4S-Me) = C[C@H]1CN[C@H](C(=O)O)[C@H]1O; Hyp = O=C(O)[C@@H]1C[C@@H](O)CN1
METRIC_NAME: Tmax (h)
Please state the figure in h; there is no need to write the unit.

get_value(item= CCCCCOc1ccc(-c2ccc(-c3ccc(C(=O)N[C@H]4C[C@@H](O)[C@@H](OCC[N+](C)(C)C)NC(=O)[C@@H]5[C@@H](O)[C@@H](C)CN5C(=O)[C@H]([C@@H](C)O)NC(=O)[C@H]([C@H](O)[C@@H](O)c5ccc(O)cc5)NC(=O)[C@@H]5C[C@@H](O)CN5C(=O)[C@H]([C@@H](C)O)NC4=O)cc3)cc2)cc1 [CD101] ({pTerphenylCO(4''-OnC5H11)}-[Orn(4R-OH,5R-OCH2CH2NMe3+)]T[Hyp][hTyr(3S-OH,4S-OH)]T[Pro(3S-OH,4S-Me)]; lactam 1-C) , readout=Tmax) returns 1

---

# TEST: Chimpanzee pharmacokinetics, i.v. infusion
# Format: in vivo, chimpanzees
# CONDITION_CONTEXT: in vivo, iv; female chimpanzees, single 1 mg/kg i.v. infusion (1 h), plasma, LC-MS/MS, noncompartmental, n = 2
# Experimental: A single 1-mg/kg dose of CD101 or anidulafungin was administered by i.v. infusion (1 h) to female chimpanzees (n = 2/group), and blood samples (via peripheral vein) were drawn for plasma processing at the midpoint of infusion, at the end of infusion, at 2, 4, 8, 12, 24, 48, and 72 h postdose, and on days 5, 7, and 10 postdose. For each of the pharmacokinetic studies, whole-blood samples (K3EDTA as anticoagulant) were collected and centrifuged within 30 min of collection. […]
Starred links: 1 amine or outer side, 2 acyl side, 3 side chain; linkers in the order of their positions; H or OH if unused. Positions of bridges follow the written chain, without caps; N, C: chain ends. Non-standard residues stand in square brackets, D forms with d. Residues, ends and D or L forms follow the SMILES beside them. *: point of attachment. Orn(4R-OH,5R-OCH2CH2NMe3+) = C[N+](C)(C)CCO[C@@H](N[*:3])[C@H](O)C[C@H](N[*:1])C(=O)[*:2]; pTerphenylCO(4''-OnC5H11) = CCCCCOc1ccc(-c2ccc(-c3ccc(C(=O)*)cc3)cc2)cc1; hTyr(3S-OH,4S-OH) = N[C@H](C(=O)O)[C@H](O)[C@@H](O)c1ccc(O)cc1; Pro(3S-OH,4S-Me) = C[C@H]1CN[C@H](C(=O)O)[C@H]1O; Hyp = O=C(O)[C@@H]1C[C@@H](O)CN1
METRIC_NAME: AUC(0-t) (µg·h/mL)
Your answer is read as µg·h/mL, so omit the unit and give the number.

AUC(0-t) for CCCCCOc1ccc(-c2ccc(-c3ccc(C(=O)N[C@H]4C[C@@H](O)[C@@H](OCC[N+](C)(C)C)NC(=O)[C@@H]5[C@@H](O)[C@@H](C)CN5C(=O)[C@H]([C@@H](C)O)NC(=O)[C@H]([C@H](O)[C@@H](O)c5ccc(O)cc5)NC(=O)[C@@H]5C[C@@H](O)CN5C(=O)[C@H]([C@@H](C)O)NC4=O)cc3)cc2)cc1 [CD101] ({pTerphenylCO(4''-OnC5H11)}-[Orn(4R-OH,5R-OCH2CH2NMe3+)]T[Hyp][hTyr(3S-OH,4S-OH)]T[Pro(3S-OH,4S-Me)]; lactam 1-C) is 290

---

# TEST: Mouse pharmacokinetics, i.v. bolus
# CONDITION_CONTEXT: in vivo, iv, male ICR (CD-1) mice, single 1 mg/kg slow i.v. bolus, plasma, LC-MS/MS, noncompartmental from mean profile, n = 3/time point
Starred links: 1 amine or outer side, 2 acyl side, 3 side chain; linkers in the order of their positions; H or OH if unused. Positions of bridges follow the written chain, without caps; N, C: chain ends. Non-standard residues stand in square brackets, D forms with d. Residues, ends and D or L forms follow the SMILES beside them. *: point of attachment. Orn(4R-OH,5R-OCH2CH2NMe3+) = C[N+](C)(C)CCO[C@@H](N[*:3])[C@H](O)C[C@H](N[*:1])C(=O)[*:2]; pTerphenylCO(4''-OnC5H11) = CCCCCOc1ccc(-c2ccc(-c3ccc(C(=O)*)cc3)cc2)cc1; hTyr(3S-OH,4S-OH) = N[C@H](C(=O)O)[C@H](O)[C@@H](O)c1ccc(O)cc1; Pro(3S-OH,4S-Me) = C[C@H]1CN[C@H](C(=O)O)[C@H]1O; Hyp = O=C(O)[C@@H]1C[C@@H](O)CN1
METRIC_NAME: Cmax (ng/mL)
Give a bare numeral; the unit ng/mL is implied.

Record CCCCCOc1ccc(-c2ccc(-c3ccc(C(=O)N[C@H]4C[C@@H](O)[C@@H](OCC[N+](C)(C)C)NC(=O)[C@@H]5[C@@H](O)[C@@H](C)CN5C(=O)[C@H]([C@@H](C)O)NC(=O)[C@H]([C@H](O)[C@@H](O)c5ccc(O)cc5)NC(=O)[C@@H]5C[C@@H](O)CN5C(=O)[C@H]([C@@H](C)O)NC4=O)cc3)cc2)cc1 [CD101] ({pTerphenylCO(4''-OnC5H11)}-[Orn(4R-OH,5R-OCH2CH2NMe3+)]T[Hyp][hTyr(3S-OH,4S-OH)]T[Pro(3S-OH,4S-Me)]; lactam 1-C) . Reported Cmax: 9290

---

# TEST: Rat pharmacokinetics, i.v. bolus
# Format: in vivo, Sprague-Dawley rats
# CONDITION_CONTEXT: rat, in vivo, iv, 45 mg/kg, female Sprague-Dawley rats, single 45 mg/kg slow i.v. bolus, plasma, LC-MS/MS, noncompartmental, n = 3 to 5/dose
Starred links: 1 amine or outer side, 2 acyl side, 3 side chain; linkers in the order of their positions; H or OH if unused. Positions of bridges follow the written chain, without caps; N, C: chain ends. Non-standard residues stand in square brackets, D forms with d. Residues, ends and D or L forms follow the SMILES beside them. *: point of attachment. Orn(4R-OH,5R-OCH2CH2NMe3+) = C[N+](C)(C)CCO[C@@H](N[*:3])[C@H](O)C[C@H](N[*:1])C(=O)[*:2]; pTerphenylCO(4''-OnC5H11) = CCCCCOc1ccc(-c2ccc(-c3ccc(C(=O)*)cc3)cc2)cc1; hTyr(3S-OH,4S-OH) = N[C@H](C(=O)O)[C@H](O)[C@@H](O)c1ccc(O)cc1; Pro(3S-OH,4S-Me) = C[C@H]1CN[C@H](C(=O)O)[C@H]1O; Hyp = O=C(O)[C@@H]1C[C@@H](O)CN1
METRIC_NAME: half-life (h)
Quick note: give the figure in h, leave out the unit.

Value of measured half-life for the entry CCCCCOc1ccc(-c2ccc(-c3ccc(C(=O)N[C@H]4C[C@@H](O)[C@@H](OCC[N+](C)(C)C)NC(=O)[C@@H]5[C@@H](O)[C@@H](C)CN5C(=O)[C@H]([C@@H](C)O)NC(=O)[C@H]([C@H](O)[C@@H](O)c5ccc(O)cc5)NC(=O)[C@@H]5C[C@@H](O)CN5C(=O)[C@H]([C@@H](C)O)NC4=O)cc3)cc2)cc1 [CD101] ({pTerphenylCO(4''-OnC5H11)}-[Orn(4R-OH,5R-OCH2CH2NMe3+)]T[Hyp][hTyr(3S-OH,4S-OH)]T[Pro(3S-OH,4S-Me)]; lactam 1-C) : 39.9

---

# TEST: Rat pharmacokinetics, i.v. bolus
# Assay type: in vivo, Sprague-Dawley rats
# CONDITION_CONTEXT: rat, in vivo, iv, 45 mg/kg, male Sprague-Dawley rats, single 45 mg/kg slow i.v. bolus, plasma, LC-MS/MS, noncompartmental, n = 3 to 5/dose
Starred links: 1 amine or outer side, 2 acyl side, 3 side chain; linkers in the order of their positions; H or OH if unused. Positions of bridges follow the written chain, without caps; N, C: chain ends. Non-standard residues stand in square brackets, D forms with d. Residues, ends and D or L forms follow the SMILES beside them. *: point of attachment. Orn(4R-OH,5R-OCH2CH2NMe3+) = C[N+](C)(C)CCO[C@@H](N[*:3])[C@H](O)C[C@H](N[*:1])C(=O)[*:2]; pTerphenylCO(4''-OnC5H11) = CCCCCOc1ccc(-c2ccc(-c3ccc(C(=O)*)cc3)cc2)cc1; hTyr(3S-OH,4S-OH) = N[C@H](C(=O)O)[C@H](O)[C@@H](O)c1ccc(O)cc1; Pro(3S-OH,4S-Me) = C[C@H]1CN[C@H](C(=O)O)[C@H]1O; Hyp = O=C(O)[C@@H]1C[C@@H](O)CN1
METRIC_NAME: Cmax (µg/mL)
// note: answer is a bare numeric in µg/mL

Input CCCCCOc1ccc(-c2ccc(-c3ccc(C(=O)N[C@H]4C[C@@H](O)[C@@H](OCC[N+](C)(C)C)NC(=O)[C@@H]5[C@@H](O)[C@@H](C)CN5C(=O)[C@H]([C@@H](C)O)NC(=O)[C@H]([C@H](O)[C@@H](O)c5ccc(O)cc5)NC(=O)[C@@H]5C[C@@H](O)CN5C(=O)[C@H]([C@@H](C)O)NC4=O)cc3)cc2)cc1 [CD101] ({pTerphenylCO(4''-OnC5H11)}-[Orn(4R-OH,5R-OCH2CH2NMe3+)]T[Hyp][hTyr(3S-OH,4S-OH)]T[Pro(3S-OH,4S-Me)]; lactam 1-C) . Output Cmax: 164
